Molecular target: T1, FGFR2 JM-KD Y657/658F (UniProt P21802-3 414-764, Y657/658F | Y657/658F)
T1 construct: numbers count on: FGFR2IIIb (C1 isoform, 822 residues); source: E. coli BL21(DE3), purified (Talon, Superdex 75)
T1 sequence (P21802 other isoform, or with tags, fused parts or gaps Y657/658F | Y657/658F | Y657/658F | Y657/658F): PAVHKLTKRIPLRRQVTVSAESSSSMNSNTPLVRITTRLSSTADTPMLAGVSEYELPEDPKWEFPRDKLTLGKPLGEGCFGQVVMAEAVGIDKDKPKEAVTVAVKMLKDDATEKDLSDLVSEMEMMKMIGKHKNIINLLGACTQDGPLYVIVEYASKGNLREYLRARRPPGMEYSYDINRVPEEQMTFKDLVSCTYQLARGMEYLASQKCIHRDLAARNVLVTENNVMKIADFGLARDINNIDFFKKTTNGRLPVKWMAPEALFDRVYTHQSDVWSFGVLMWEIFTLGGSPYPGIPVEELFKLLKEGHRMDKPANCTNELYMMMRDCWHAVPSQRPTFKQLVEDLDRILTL
Assay: SPR; untagged CT immobilised on a CM4 chip by amine coupling (about 200 RU); JM-KD proteins of different phosphorylation level injected at 30 µl/min, then buffer wash; steady-state fitting
Conditions: both partners purified
MEASURED_METRIC: pKd
Remember, pKd is on a log scale: it is -log10 of the molar concentration.

The binder listed as FGFR2 C-terminal tail of the C1 isoform, untagged (the last 58 residues of FGFR2) (domain or fragment, UniProt P21802-3 765-822, looked up, FGFR2 (IIIb, C1 isoform) C-terminal tail, the last 58 residues of FGFR2; numbers count on: FGFR2IIIb (C1 isoform, 822 residues); Unlabelled form: immobilised by amine coupling in SPR; added as 'CT' in the steady-state FRET; also called CT^C1; source: E. coli BL21(DE3), purified as GST fusion, GST removed with thrombin) TTNEEYLDLSQPLEQYSPSYPDTRSSCSSGDDSVFSPDPMPYEPCLPQYPHINGSVKT has a reported pKd of 5.25

Reference for the values: paper PMC10349056
